- Tested on: HBV
- Test Description: Anti-HBV activity in stable transfected HepG2.2.15 cell line (HBV DNA from secreted virions, realtime PCR)
- Format: cell-based
- Test Context: Hepatitis B virus, HepG2.2.15, 144 h, HepG2.2.15 cells, 6 days of treatment, secreted virion HBV DNA; read-out: HepG2 2.15 EC50
pEC50: −log10 of the molar value.
pEC50: recorded values

[
  {
    "Compound": "CC1(NS(=O)(=O)c2cc(Cl)cc(C(=O)Nc3ccc(F)c(C(F)F)c3)c2F)COC1 [Compound 217]",
    "Relation": "=",
    "pEC50": 6.70
  },
  {
    "Compound": "Cc1c(NC(=O)c2cccc(S(=O)(=O)N[C@H]3CCOC3)c2)ccc(F)c1F [Compound 118]",
    "Relation": "=",
    "pEC50": 5.44
  },
  {
    "Compound": "Cc1cc(NC(=O)c2cccc(S(=O)(=O)NCC(F)F)c2)ccc1F [Compound 227]",
    "Relation": "=",
    "pEC50": 6.80
  },
  {
    "Compound": "Cc1cc(NC(=O)c2cccc(S(=O)(=O)N[C@H]3c4ccccc4C[C@H]3O)c2)ccc1F [Compound 177]",
    "Relation": "=",
    "pEC50": 6.11
  },
  {
    "Compound": "O=C(Nc1ccccc1Cl)c1cc(S(=O)(=O)NC2CCCCC2)ccc1F [Compound 42]",
    "Relation": "=",
    "pEC50": 4.93
  },
  {
    "Compound": "CCC(C)(C)NS(=O)(=O)c1cccc(C(=O)Nc2ccc(F)c(C)c2)c1 [Compound 86]",
    "Relation": "=",
    "pEC50": 6.85
  },
  {
    "Compound": "O=C(Nc1cccc(C(F)(F)F)c1)c1cccc(S(=O)(=O)NC2CCCC2)c1 [Compound 81]",
    "Relation": "=",
    "pEC50": 6.62
  },
  {
    "Compound": "Cc1cc(NC(=O)c2cccc(S(=O)(=O)N[C@H](C)C3CC3)c2)ccc1F [Compound 152]",
    "Relation": ">",
    "pEC50": 7.00
  }
]
